biological target: human 5HT1Dα (Homo sapiens, UniProt P28221); construct: expressed in transfected cells; host or cells: Cos-7 and CHO-K1; assay: binding to human 5HT1Dα receptor; details: human receptor, [3H]-5CT 2 nM; read-out: Ki 5HT1Dα
Sequence (P28221 whole entry): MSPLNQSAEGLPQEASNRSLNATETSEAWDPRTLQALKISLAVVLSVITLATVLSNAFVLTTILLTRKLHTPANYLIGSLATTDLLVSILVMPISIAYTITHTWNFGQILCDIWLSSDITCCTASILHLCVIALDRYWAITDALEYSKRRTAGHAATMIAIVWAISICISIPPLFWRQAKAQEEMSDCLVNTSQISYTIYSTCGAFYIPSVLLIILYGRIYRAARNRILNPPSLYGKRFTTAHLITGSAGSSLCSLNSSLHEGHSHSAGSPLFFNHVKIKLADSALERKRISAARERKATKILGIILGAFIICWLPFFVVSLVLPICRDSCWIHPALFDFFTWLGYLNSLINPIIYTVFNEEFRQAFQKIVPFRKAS

Compound: CNS(=O)(=O)CCc1ccc2[nH]cc(C3CCN(C)CC3)c2c1 [Naratriptan, reference compound]
Measured on: human 5HT1Dα (Homo sapiens, UniProt P28221)
Ki (nM): 1.6

====

tested on: rabbit saphenous vein; test: contraction of the rabbit saphenous vein rings mediated by the 5HT1-like receptors; type: cell-based; conditions: Oryctolagus cuniculus; contraction of the rabbit saphenous vein; read-out: pD2 (converted)
Structures can show the parent of a compound that is named as a salt.

Molecule: CNS(=O)(=O)Cc1ccc2[nH]cc(CCN(C)C)c2c1 [Sumatriptan, reference compound]
Measured on: rabbit saphenous vein
EC50 (nM): 1780
--
Molecule: CC(C)OC(=O)CCCCCOc1ccc2[nH]cc(CCN)c2c1 [Example 16, hydrochloride]
Measured on: rabbit saphenous vein
EC50 (nM): 240
--
Molecule: CNS(=O)(=O)CCc1ccc2[nH]cc(C3CCN(C)CC3)c2c1 [Naratriptan, reference compound]
Measured on: rabbit saphenous vein
EC50 (nM): 2880
--
Molecule: CCOC(=O)CCCCOc1ccc2[nH]cc(CCN)c2c1 [Example 13, hydrochloride]
Measured on: rabbit saphenous vein
EC50 (nM): 309
--
Molecule: CCOC(=O)CCCOc1ccc2[nH]cc(CCN)c2c1 [Example 12, hydrochloride]
Measured on: rabbit saphenous vein
EC50 (nM): 692
